experimentalDetails: Plasma pharmacokinetics of pomalidomide and circulating metabolites by radiochromatography (metabolite profiling)
Type: in vivo, human
recordedConditions: plasma, radiochromatography, geometric mean (%CV)
For each of the molecules below, state its C max.

Example entries begin here.
Nc1cccc2c1C(=O)N(C1CCC(=O)NC1=O)C2=O (racemic) [Pomalidomide]	11.0 (22.5) ngEq/mL
Nc1c(O)ccc2c1C(=O)N(C1CCC(=O)NC1=O)C2=O (stereo not shown) [Metabolite M17, 5-hydroxy pomalidomide]	0.68 (33.3) ngEq/mL
Nc1ccc(O)c2c1C(=O)N(C1CCC(=O)NC1=O)C2=O (stereo not shown) [Metabolite M16, 7-hydroxy pomalidomide]	0.907 (27.4) ngEq/mL
Nc1cccc(C(=O)O)c1C(=O)O [Metabolite M2, 3-Aminophthalic acid]	0.238 (36.3) ngEq/mL
Nc1c(O[C@@H]2O[C@H](C(=O)O)[C@@H](O)[C@H](O)[C@H]2O)ccc2c1C(=O)N(C1CCC(=O)NC1=O)C2=O (stereo partly shown) [Metabolite M13]	0.362 (31.7) ngEq/mL
Nc1c(O[C@@H]2O[C@H](C(=O)O)[C@@H](O)[C@H](O)[C@H]2O)ccc2c1C(=O)N(C1CCC(=O)NC1=O)C2=O (stereo partly shown) [Metabolite M12]	0.664 (23.5) ngEq/mL

Here's the next entry for you.
Given NC(=O)CCC(C(=O)O)N1C(=O)c2cccc(N)c2C1=O (stereo not shown) [Metabolite M11] , state its recorded C max. 0.965 (33.3) ngEq/mL

---

Could you please report measured AUC0−∞ for the items listed next?
experimentalDetails: Plasma pharmacokinetics of pomalidomide and circulating metabolites by radiochromatography (metabolite profiling)
Type: in vivo, human
Design: concentration or dose not given beside the values
recordedConditions: plasma, radiochromatography, geometric mean (%CV)

Nc1cccc2c1C(=O)N(C1CCC(=O)NC1=O)C2=O (racemic) [Pomalidomide]	165 (43.2) ngEq*h/mL

Could you tell me AUC0−∞ for each of these compounds? They are listed below.
1. Nc1c(O)ccc2c1C(=O)N(C1CCC(=O)NC1=O)C2=O (stereo not drawn) [Metabolite M17, 5-hydroxy pomalidomide]
2. NC(=O)CCC(C(=O)O)N1C(=O)c2cccc(N)c2C1=O (stereo not drawn) [Metabolite M11]

["11.5 (36.9) ngEq*h/mL", "15.9 (59.7) ngEq*h/mL"]

---

experimentalDetails: Plasma pharmacokinetics of pomalidomide and its enantiomers (chiral LC–MS/MS) after a single oral 2 mg dose of [14C]pomalidomide
Type: in vivo, human
recordedConditions: male, human, mean ± SD (n = 8)
property: AUC(0-inf) (ng·h/mL)
Give bare numbers, in ng·h/mL.

Which AUC(0-inf) is listed for Nc1cccc2c1C(=O)N(C1CCC(=O)NC1=O)C2=O (racemic) [Pomalidomide] ? 189

---

experimentalDetails: Metabolite profiling of urine and feces (% of dose excreted)
Format: in vivo, human
recordedConditions: pooled urine 0–72 h, radiochromatography
property: % of dose excreted, Urine (%)
One number for each entry, in %.

Answered examples (5):
Nc1cccc(C(=O)O)c1C(=O)O [Metabolite M2, 3-Aminophthalic acid]	1.4
NC(=O)C(CCC(=O)O)N1C(=O)c2cccc(N)c2C1=O (stereo not shown) [Metabolite M10]	1.5
Nc1ccc(O)c2c1C(=O)N(C1CCC(=O)NC1=O)C2=O (stereo not shown) [Metabolite M16, 7-hydroxy pomalidomide]	7.0
Nc1cccc2c1C(=O)N(C1CCC(=O)NC1=O)C2=O (racemic) [Pomalidomide]	2.2
Nc1c(O)ccc2c1C(=O)N(C1CCC(=O)NC1=O)C2=O (stereo not shown) [Metabolite M17, 5-hydroxy pomalidomide]	3.2

Let us move to another entry and its % of dose excreted, Urine.
I would be grateful if you could share the reported % of dose excreted, Urine for CC(=O)Nc1cccc2c1C(=O)N(C1CCC(=O)NC1=O)C2=O (stereo not shown) [Metabolite M18, N-acetyl pomalidomide] . 0.1

---

experimentalDetails: Metabolite profiling of urine and feces (% of dose excreted)
Type: in vivo, human
recordedConditions: pooled feces 0–96 h, radiochromatography
property: % of dose excreted, Feces (%)
Answers are plain numbers, in %.

Parameters: items (list). Returns: % of dose excreted, Feces for each item.
1. NC(=O)CCC(C(=O)O)N1C(=O)c2cccc(N)c2C1=O (centres unmarked) [Metabolite M11]
2. NC(=O)C(CCC(=O)O)N1C(=O)c2cccc(N)c2C1=O (centres unmarked) [Metabolite M10]
3. Nc1cccc2c1C(=O)N(C1CCC(=O)NC1=O)C2=O (racemic) [Pomalidomide]
4. Nc1c(O)ccc2c1C(=O)N(C1CCC(=O)NC1=O)C2=O (centres unmarked) [Metabolite M17, 5-hydroxy pomalidomide]

[0.3, 0.3, 7.7, 2.8]

---

Exercise: for every item that follows, state its recorded half-life.
experimentalDetails: Plasma pharmacokinetics of pomalidomide and circulating metabolites by radiochromatography (metabolite profiling)
Assay type: in vivo, human
recordedConditions: male, human, plasma, oral, 2 mg, plasma, radiochromatography, geometric mean (%CV); read-out: t ½ (converted)
Numbers only, in h.

NC(=O)CCC(C(=O)O)N1C(=O)c2cccc(N)c2C1=O (centres unmarked) [Metabolite M11]	10
Nc1ccc(O)c2c1C(=O)N(C1CCC(=O)NC1=O)C2=O (centres unmarked) [Metabolite M16, 7-hydroxy pomalidomide]	14.2
Nc1cccc2c1C(=O)N(C1CCC(=O)NC1=O)C2=O (racemic) [Pomalidomide]	9.4
Nc1cccc(C(=O)O)c1C(=O)O [Metabolite M2, 3-Aminophthalic acid]	13.2

Recorded half-life for Nc1c(O)ccc2c1C(=O)N(C1CCC(=O)NC1=O)C2=O (centres unmarked) [Metabolite M17, 5-hydroxy pomalidomide] , please? 11

---

System: OPM-2 MM cell
experimentalDetails: Inhibition of MM cell proliferation ([3H]-thymidine incorporation, 3-day culture)
Type: cell-based
recordedConditions: Homo sapiens
property: IC50

// solved cases for IC50 follow
Nc1cccc2c1C(=O)N(C1CCC(=O)NC1=O)C2=O (racemic) [Pomalidomide]	38 nM
Nc1cccc2c1C(=O)N(C1CC(O)C(=O)NC1=O)C2=O (stereo not drawn) [Metabolite M19]	> 1000 nM

Given the entry NC(=O)CCC(C(=O)O)N1C(=O)c2cccc(N)c2C1=O (stereo not drawn) [Metabolite M11] , report its measured IC50. > 1000 nM

---

experimentalDetails: Plasma pharmacokinetics of pomalidomide and its enantiomers (chiral LC–MS/MS) after a single oral 2 mg dose of [14C]pomalidomide
Type: in vivo, human
recordedConditions: male, human, mean ± SD (n = 8)
property: AUC(0-t)
Field: value (include unit after the number)

Please look up its AUC(0-t): Nc1cccc2c1C(=O)N(C1CCC(=O)NC1=O)C2=O (racemic) [Pomalidomide] 137 ng·h/mL

---

System: PBMC TNF-α production
experimentalDetails: Inhibition of TNF-α production by LPS-stimulated human PBMC (1-day culture)
Assay type: cell-based
recordedConditions: 24 h
Experimental: Metabolites and hydrolysis products of pomalidomide were tested for pharmacological activity in the following three assay systems: (1) inhibition of MM cell proliferation, (2) enhancement of primary human T cell IL-2 production and (3) inhibition of TNF-α production by lipopolysaccharide (LPS)-stimulated human peripheral blood mononuclear cells (PBMC). […]
property: IC50

Solved cases (5 shown):
Nc1c(O)ccc2c1C(=O)N(C1CCC(=O)NC1=O)C2=O (stereo not shown) [Metabolite M17, 5-hydroxy pomalidomide]	> 10 µM
CC(=O)Nc1cccc2c1C(=O)N(C1CCC(=O)NC1=O)C2=O (stereo not shown) [Metabolite M18, N-acetyl pomalidomide]	> 10 µM
Nc1cccc2c1C(=O)N(C1CCC(=O)NC1=O)C2=O (racemic) [Pomalidomide]	0.0031 µM
NC(=O)CCC(C(=O)O)N1C(=O)c2cccc(N)c2C1=O (stereo not shown) [Metabolite M11]	> 10 µM
Nc1ccc(O)c2c1C(=O)N(C1CCC(=O)NC1=O)C2=O (stereo not shown) [Metabolite M16, 7-hydroxy pomalidomide]	> 10 µM

Below are some compounds; for each one, tell me its IC50.
1. NC(=O)C(CCC(=O)O)N1C(=O)c2cccc(N)c2C1=O (stereo not shown) [Metabolite M10]
2. Nc1cccc2c1C(=O)N(C1CC(O)C(=O)NC1=O)C2=O (stereo not shown) [Metabolite M19]

> 10 µM
2.3 µM

---

System: T cell IL-2 production
experimentalDetails: Enhancement of primary human T cell IL-2 production (anti-CD3 stimulated, 2-day culture)
Assay type: cell-based
recordedConditions: 48 h, anti-CD3 stimulated primary human T cells
Give EC50 for every item shown.
Give bare numbers, in nM.

Here is how some compounds turned out for EC50.
NC(=O)C(CCC(=O)O)N1C(=O)c2cccc(N)c2C1=O (stereo not shown) [Metabolite M10]	720
Nc1cccc2c1C(=O)N(C1CC(O)C(=O)NC1=O)C2=O (stereo not shown) [Metabolite M19]	1500

Now look at this one.
Field request: EC50 | item: Nc1cccc2c1C(=O)N(C1CCC(=O)NC1=O)C2=O (racemic) [Pomalidomide] 22

---

experimentalDetails: Plasma pharmacokinetics of pomalidomide and circulating metabolites by radiochromatography (metabolite profiling)
Type: in vivo, human
recordedConditions: human, oral, 2 mg; plasma, radiochromatography, median and range
So I've got a bunch of compounds here, and I need their Tmax values.
One number for each entry, in h.

For every listed record, write down its Tmax.
1. Nc1c(O)ccc2c1C(=O)N(C1CCC(=O)NC1=O)C2=O (centres unmarked) [Metabolite M17, 5-hydroxy pomalidomide]
2. NC(=O)CCC(C(=O)O)N1C(=O)c2cccc(N)c2C1=O (centres unmarked) [Metabolite M11]

2.5
2.5

Hi there! I need Tmax for each item below, if you can.
1. Nc1cccc(C(=O)O)c1C(=O)O [Metabolite M2, 3-Aminophthalic acid]
2. Nc1ccc(O)c2c1C(=O)N(C1CCC(=O)NC1=O)C2=O (centres unmarked) [Metabolite M16, 7-hydroxy pomalidomide]
3. Nc1cccc2c1C(=O)N(C1CCC(=O)NC1=O)C2=O (racemic) [Pomalidomide]

1: 6; 2: 1; 3: 2.5

Source listed as paper PMC3556473.
